Listed here are compounds together with their documented GI50.
system: SK-MEL-28; assay: NCI tumour cell line growth inhibition, 48 h
Calls of active or inactive are those of the source. Cut-off read from the data, not from the text of the source: active = GI50 up to about 1.1 µM and inactive = higher.

compound	reading
CCOC(=O)C(C)(C)Oc1ccc2c(-c3ccc(Cl)cc3)cc(=O)oc2c1	> 100 µM (inactive)
O=C(NCCCCCCCCNC(=O)c1cccc2ccccc12)c1cccc2ccccc12	> 59 µM (inactive)
C=C[C@]1(C)CC(O)C2C(=C)C(=O)OC2[C@H]1C(=C)C=O (stereo partly drawn)	1.3 µM (inactive)

### Prompt Give the measured GI50 of CC(=O)OC12CC[N+]3(C)CCCCC3C1=Nc1ccccc12 (stereo not drawn) .
### Response > 100 µM (inactive)

### Prompt And what about the compound COC(=O)CCC(NC(=S)N/N=C(\C)c1cccs1)C(=O)OC (stereo not drawn) ?
### Response > 100 µM (inactive)

### Prompt And what about the compound `O=C1/C(=C/c2ccccc2)CN(C(=O)Oc2ccccc2)C/C1=C\c1ccccc1` ?
### Response > 100 µM (inactive)

### Prompt And what about the compound C#CCOC(=O)C(N)CS (stereo not drawn) ?
### Response > 100 µM (inactive)

### Prompt And what about the compound `COc1cc([C@@H]2Oc3cc4oc(-c5ccccc5)cc(=O)c4c(O)c3O[C@H]2OC)ccc1O` ?
### Response 4.69 µM (inactive)
